# EXPERIMENTAL TARGET: Retinol-binding protein 4 (Homo sapiens)
# ASSAY NAME: Displacement of [3H]-retinol from RBP4 (unknown origin) by scintillation proximity assay
Rule: IC50 below 200 nM gives satisfied. Equal to or above 200 nM gives not satisfied.

SMILES STRUCTURE | CATEGORY
O=C(O)c1cncc(N2C[C@H]3C[C@@H](c4ccccc4C(F)(F)F)C[C@H]3C2)c1 | not satisfied
Cc1cc(C(=O)O)nc(N2CCC(c3ccccc3C(F)(F)F)CC2)n1 | satisfied
Cc1ccc(N2C[C@H]3C[C@@H](c4ccccc4C(F)(F)F)C[C@H]3C2)nc1C(=O)O | not satisfied
Cc1nc(N2C[C@H]3C[C@@H](c4ccccc4C(F)(F)F)C[C@H]3C2)ncc1C(=O)O | satisfied
Cc1cc(C(=O)O)nc(N2C[C@H]3C[C@@H](c4cc(F)ccc4Cl)C[C@H]3C2)n1 | not satisfied
CC(C)c1cc(C(=O)O)nc(N2C[C@H]3C[C@@H](c4ccccc4C(F)(F)F)C[C@H]3C2)n1 | satisfied
COc1cc(C(=O)O)nc(N2C[C@H]3C[C@@H](c4ccccc4C(F)(F)F)C[C@H]3C2)n1 | satisfied
COC(=O)c1cc(C)nc(N2CCC(c3ccccc3C(F)(F)F)CC2)n1 | satisfied
O=C(O)c1cccc(N2C[C@H]3C[C@@H](c4ccccc4C(F)(F)F)C[C@H]3C2)c1 | satisfied
Cc1cc(C(=O)O)nc(N2C[C@H]3C[C@@H](c4cnccc4C(F)(F)F)C[C@H]3C2)n1 | satisfied
O=C(O)c1ccnc(N2C[C@H]3C[C@@H](c4ccccc4C(F)(F)F)C[C@H]3C2)n1 | satisfied
